These data points were gathered from PubChem BioAssay (NCI).

- Test system: OVCAR-8 ovarian
- assayExplanation: NCI-60 one-dose screen, 48 h
- assaySetup: 10 µM unless noted
Compounds without any hit were thinned out: in the full panel of roughly 83,000, 20% have a hit. Activity calls are given as the source filed them. How the source made its calls: active means growth percent below 10; inactive means the rest.
Pick one: T (active), F (inactive)

// known answers, use as guide
CCOC(=O)c1c(NC(=S)Nc2ccc([N+](=O)[O-])cc2)sc2c1CCCCC2 : F
C=CC(=O)NCc1cccc(Nc2ncc(Br)c(NCCCNC(=O)C3CCC3)n2)c1 : T
CCCCCCCCCCCCCC[n+]1ccc2c(C)c3c(c(C)c2c1)c1cc(O)ccc1n3CC : T
CCOC(=O)C1=C(c2ccccc2)N=C2SC=C(c3cccc([N+](=O)[O-])c3)N2C1c1ccc(O)cc1 (centres undefined) : F
CCn1c2ccccc2c2cc(C(O)c3cccc4ncccc34)ccc21 (centres undefined) : F
COc1cc(/C=C2\C(=O)N(CCOc3cc(O)c4c(=O)cc(-c5ccccc5)oc4c3)c3ccccc32)cc(OC)c1O : F
C#C[C@]1(O)CC[C@H]2[C@@H]3CC=C4c5sc(-c6cccc(C)c6)nc5CC[C@]4(C)[C@H]3CC[C@@]21C : F
Nc1ccc(Cl)c2c(=O)c3ccccc3[nH]c12 : F

With those in mind, consider the next compound.
### Prompt Check the results log: what was the call for "CCN(CC)CCN1C(=O)c2c(c(C)c3c(oc4cc(OC)ccc43)c2C)C1=O" ?
### Response F

====

- System: HS 578T breast
- assayExplanation: NCI-60 one-dose screen, 48 h (100 = growth as untreated, 0 = no growth, -100 = all killed)
- assaySetup: 10 µM unless noted
- Protocol: Growth inhibition of the HS 578T human tumor cell line is measured as a screen for anti-cancer activity. Cells are grown in 96 well plates and exposed to the test compound for 48 hours. Compounds are tested at a single concentration, which is 10^-5 M for most compounds. The reported endpoint is percent growth (GI% or GIPRCNT), where numbers from 0 - 100% represent growth inhibition, and numbers from -100% - 0 represent cell death. For example, a value of 40 represents 60% growth inhibition. […]
This is part of a sample that, as a whole, favours compounds with a hit. Of some 83,000 tested, about 20% had one in any assay.
measurementType: growth (%)
// return numeric value only (unit: %, not printed)

Some compounds with known growth results, for comparison:
CCOC(=O)/C(=C\c1ccccc1Cl)P(=O)(OCC)OCC : 80.3
CN1CC(c2ccccc2)C(C(=O)c2ccc(Br)cc2)C12C(=O)Nc1ccccc12 (centres undefined) : 94.2
CC(=O)OCC(=O)O[C@@H]1C[C@]2(C(C)C)O[C@@]1(C)[C@@H]1CC[C@@H](C)[C@H]1[C@@H]2OC(=O)/C=C/c1ccccc1 : -18
CC1(C)CC[C@]2(CO)CC[C@]3(C)[C@H](CC[C@@H]4[C@@]5(C)CC[C@H](O)C(C)(C)[C@@H]5CC[C@]43C)[C@H]2[C@H]1O : 7.22

Field growth (HS 578T breast), entry "COc1ccccc1NC(=O)n1c(=O)cc(C)c2ccc(O)cc21" : 110

Field growth (HS 578T breast), entry "COC12C=C/C(=C(/C(=O)OCc3ccccn3)C(=O)CCCCCCCCC3(OC)C=C/C(=C(/C(=O)OCc4ccccn4)C(=O)CCCCCCCC1)O3)O2" : 49.7

Field growth (HS 578T breast), entry "O=C(CN1C(=O)c2ccccc2S1(=O)=O)Nc1nc(-c2cc3ccccc3oc2=O)cs1" : 96.6

Field growth (HS 578T breast), entry "O=C(/C=C/c1cccc([N+](=O)[O-])c1)c1ccc(Nc2nc(Nc3ccc(F)cc3)nc(Nc3ccc(Cl)cc3)n2)cc1" : 106

Field growth (HS 578T breast), entry "CN1/C(=C/C=C/c2n(Cc3ccc4ccccc4c3)c(Cl)c(Cl)[n+]2Cc2ccc3ccccc3c2)Oc2ccccc21" : -44.4

Field growth (HS 578T breast), entry "CC(=O)c1ccc(Nc2nccc(-c3ccc(Cl)cc3)n2)cc1" : 95

Field growth (HS 578T breast), entry Cc1[nH]c(C2CC(c3ccc(C(F)(F)F)c(F)c3)=NN2C)c(C)c1C(=O)NCC(F)(F)F (centres undefined) : 95.9
